TEST_DETAILS: Solubility screen: solubility assessment of amorphous Compound 1 in solvents
Assay type: physicochemical
CONDITIONS_USED: organic solvent or mixture, thermodynamic from solid; in tert-Butylmethyl ether, room temperature
ASSAY_READOUT: solubility

Ask | Data request, read-out solubility, for `C[C@H](NC(=O)c1c(N)nn2cccnc12)c1cc2cccc(C#Cc3cnn(C)c3)c2c(=O)n1-c1ccccc1`
Reply | < 17 mg/mL

---

TEST_DETAILS: Solubility screen: solubility assessment of amorphous Compound 1 in solvents
Format: physicochemical
CONDITIONS_USED: organic solvent or mixture, thermodynamic from solid; in n-Heptane, room temperature
ASSAY_READOUT: solubility

Ask | I would be grateful if you could share the reported solubility for `C[C@H](NC(=O)c1c(N)nn2cccnc12)c1cc2cccc(C#Cc3cnn(C)c3)c2c(=O)n1-c1ccccc1` .
Reply | < 17 mg/mL

---

TEST_DETAILS: Kinetic solubility after 30 min in water and in 0.1M HCl
Type: physicochemical
CONDITIONS_USED: 0.1M HCl, pH 1.3, simulated gastric fluid, thermodynamic from solid, cocrystal, 30 min, in 0.1M HCl, in duplicate, pH 1.3; read-out: 30 min Kinetic solubility (pH)
ASSAY_READOUT: solubility kinetic at 30 min
Dear colleague, please send the value followed by its unit.

Ask | Could you share which solubility kinetic at 30 min value was measured for C[C@H](NC(=O)c1c(N)nn2cccnc12)c1cc2cccc(C#Cc3cnn(C)c3)c2c(=O)n1-c1ccccc1 [Form P1C3] ?
Reply | 20 µg/mL

---

TEST_DETAILS: Solubility screen: solubility assessment of amorphous Compound 1 in solvents
Type: physicochemical
CONDITIONS_USED: organic solvent or mixture, thermodynamic from solid; in Methanol, room temperature
ASSAY_READOUT: solubility

Ask | // lookup solubility for C[C@H](NC(=O)c1c(N)nn2cccnc12)c1cc2cccc(C#Cc3cnn(C)c3)c2c(=O)n1-c1ccccc1 [amorphous Compound 1]
Reply | < 17 mg/mL

---

TEST_DETAILS: Solubility screen: solubility assessment of amorphous Compound 1 in solvents
Format: physicochemical
CONDITIONS_USED: organic solvent or mixture, thermodynamic from solid; in Cyclohexane, room temperature
ASSAY_READOUT: solubility

Ask | Dear colleague, I am looking for the recorded solubility of the following compound: `C[C@H](NC(=O)c1c(N)nn2cccnc12)c1cc2cccc(C#Cc3cnn(C)c3)c2c(=O)n1-c1ccccc1`
Reply | < 17 mg/mL

---

TEST_DETAILS: Solubility screen: solubility assessment of amorphous Compound 1 in solvents
Format: physicochemical
CONDITIONS_USED: organic solvent or mixture, thermodynamic from solid; in Chloroform, room temperature
ASSAY_READOUT: solubility

Ask | Look at this compound and give its reported solubility. `C[C@H](NC(=O)c1c(N)nn2cccnc12)c1cc2cccc(C#Cc3cnn(C)c3)c2c(=O)n1-c1ccccc1`
Reply | < 17 mg/mL

---

TEST_DETAILS: Solubility of Compound 1 in acetonitrile/water during controlled crystallization
Type: physicochemical
CONDITIONS_USED: organic solvent or mixture; 80/20 v/v acetonitrile/water, 65° C.
ASSAY_READOUT: solubility

Ask | // query solubility value for entry `C[C@H](NC(=O)c1c(N)nn2cccnc12)c1cc2cccc(C#Cc3cnn(C)c3)c2c(=O)n1-c1ccccc1`
Reply | ~50 mg/mL
